Test system: Enterococcus sp.
Assay Notes: In vitro antibacterial evaluation: minimum inhibitory concentration (MIC), broth dilution method
Type: cell-based
Test Settings: strain GC 4552
Readout Kind: MIC Enterococcus faecalis (GC 4552)

Record excerpt, results attached:
{"Compound": "CC(C)=CCCC(C)=CCN=C1NCC(C(O)C2NC(=O)C(C(O)C3CNC(=N)N3)NC(=O)C(Cc3ccc(OC4OC(CO)C(OC5OC6COC7(OC6C(O)C5O)C5CC6CC(C5)CC7C6)C(O)C4O)cc3)NC(=O)C(C(C)c3ccccc3)NC(=O)CNC(=O)C(CO)NC2=O)N1C1OC(CO)C(O)C(O)C1O (stereo not drawn)", "MIC Enterococcus faecalis (GC 4552)": "16 µg/mL"}
{"Compound": "CCCCCC(=O)OCC1OC(OC2C(CO)OC(Oc3ccc(CC4NC(=O)C(C(C)c5ccccc5)NC(=O)CNC(=O)C(CO)NC(=O)C(C(O)C5CNC(=N)N5C5OC(CO)C(O)C(O)C5O)NC(=O)C(C(O)C5CNC(=N)N5)NC4=O)cc3)C(O)C2O)C(O)C(O)C1O (stereo not drawn) [Example 95b]", "MIC Enterococcus faecalis (GC 4552)": "8 µg/mL"}

Query: Output measured MIC Enterococcus faecalis (GC 4552) for this item: CC(c1ccccc1)C1NC(=O)CNC(=O)C(CO)NC(=O)C(CC2CN(Cc3ccccc3)C(=N)N2C2OC(CO)C(O)C(O)C2O)NC(=O)C(CC2CNC(=N)N2)NC(=O)C(Cc2ccc(OC3OC(CO)C(OC4OC5COC6(OC5C(O)C4O)C4CC5CC(C4)CC6C5)C(O)C3O)cc2)NC1=O (stereo not drawn)
Reply: 64 µg/mL

Query: Look up and state reported MIC Enterococcus faecalis (GC 4552) for CCCc1ccc(C2OCC3OC(OC4C(CO)OC(Oc5ccc(CC6NC(=O)C(C(C)c7ccccc7)NC(=O)CNC(=O)C(CO)NC(=O)C(C(O)C7CNC(=N)N7C7OC(CO)C(O)C(O)C7O)NC(=O)C(C(O)C7CNC(=N)N7)NC6=O)cc5)C(O)C4O)C(O)C(O)C3O2)cc1 (stereo not drawn)
Reply: 1 µg/mL

Query: Look up MIC Enterococcus faecalis (GC 4552) of CCCCCC(=O)OCC1OC(N2C(=N)NCC2C(O)C2NC(=O)C(C(O)C3CNC(=N)N3)NC(=O)C(Cc3ccc(OC4OC(CO)C(OC5OC(CO)C(O)C(O)C5O)C(O)C4O)cc3)NC(=O)C(C(C)c3ccccc3)NC(=O)CNC(=O)C(CO)NC2=O)C(O)C(O)C1O (stereo not drawn) and report it.
Reply: >64 µg/mL

Query: Specify MIC Enterococcus faecalis (GC 4552) for COc1ccc(Oc2cccc(C3OCC4OC(OC5C(CO)OC(Oc6ccc(CC7NC(=O)C(C(C)c8ccccc8)NC(=O)CNC(=O)C(CO)NC(=O)C(C(O)C8CNC(=N)N8C8OC(CO)C(O)C(O)C8O)NC(=O)C(C(O)C8CNC(=N)N8)NC7=O)cc6)C(O)C5O)C(O)C(O)C4O3)c2)cc1 (stereo not drawn) and stop.
Reply: 2 µg/mL

Query: Supply reported MIC Enterococcus faecalis (GC 4552) belonging to this compound: CCCCCCCN1CC(C(O)C2NC(=O)C(C(O)C3CNC(=N)N3)NC(=O)C(Cc3ccc(OC4OC(CO)C(OC5OC6COC7(OC6C(O)C5O)C5CC6CC(C5)CC7C6)C(O)C4O)cc3)NC(=O)C(C(C)c3ccccc3)NC(=O)CNC(=O)C(CO)NC2=O)N(C2OC(CO)C(O)C(O)C2O)C1=N (stereo not drawn)
Reply: 4 µg/mL

Query: Give me measured MIC Enterococcus faecalis (GC 4552), please, for this compound: CCCCCCN=C1NCC(C(O)C2NC(=O)C(C(O)C3CNC(=N)N3)NC(=O)C(Cc3ccc(OC4OC(CO)C(OC5OC6COC7(OC6C(O)C5O)C5CC6CC(C5)CC7C6)C(O)C4O)cc3)NC(=O)C(C(C)c3ccccc3)NC(=O)CNC(=O)C(CO)NC2=O)N1C1OC(CO)C(O)C(O)C1O (stereo not drawn)
Reply: 8 µg/mL

Query: Answer with reported MIC Enterococcus faecalis (GC 4552) of CC(c1ccccc1)C1NC(=O)CNC(=O)C(CO)NC(=O)C(C(O)C2CNC(=N)N2C2OC(CO)C(O)C(O)C2O)NC(=O)C(C(O)C2CNC(=N)N2)NC(=O)C(Cc2ccc(OC3OC(CO)C(OC4OC5COC(c6ccc(-c7cccs7)cc6)OC5C(O)C4O)C(O)C3O)cc2)NC1=O (stereo not drawn)
Reply: 8 µg/mL

Query: Hello, please tell me recorded MIC Enterococcus faecalis (GC 4552) for this one: COc1cc(OC)cc(C2OC3C(OC4C(CO)OC(Oc5ccc(CC6NC(=O)C(C(C)c7ccccc7)NC(=O)CNC(=O)C(CO)NC(=O)C(C(O)C7CNC(=N)N7C7OC(CO)C(O)C(O)C7O)NC(=O)C(C(O)C7CNC(=N)N7)NC6=O)cc5)C(O)C4O)OC(CO)C(O)C3O2)c1 (stereo not drawn) [Example 150a]
Reply: >64 µg/mL

Query: Look up and state reported MIC Enterococcus faecalis (GC 4552) for CC(c1ccccc1)C1NC(=O)CNC(=O)C(CO)NC(=O)C(C(O)C2CNC(=N)N2C2OC(CO)C(O)C(O)C2O)NC(=O)C(C(O)C2CNC(=N)N2)NC(=O)C(Cc2ccc(OC3OC(CO)C(OC4OC5COC(c6ccc(-c7ccc(Cl)cc7)cc6)OC5C(O)C4O)C(O)C3O)cc2)NC1=O (stereo not drawn)
Reply: 4 µg/mL

Query: Note MIC Enterococcus faecalis (GC 4552) for the compound shown: CC(c1ccccc1)C1NC(=O)CNC(=O)C(CO)NC(=O)C(C(O)C2CNC(=N)N2C2OC(CO)C(O)C(O)C2O)NC(=O)C(C(O)C2CNC(=N)N2)NC(=O)C(Cc2ccc(OC3OC(CO)C(OC4OC5COC(c6ccc(C(=O)O)cc6)OC5C(O)C4O)C(O)C3O)cc2)NC1=O (stereo not drawn)
Reply: >64 µg/mL

* * *

Tested on: Enterococcus sp.
Assay Notes: In vitro antibacterial evaluation: minimum inhibitory concentration (MIC), broth dilution method
Type: cell-based
Test Settings: broth dilution, 5×10^5 CFU/mL, 18 hours at 35° C.
Readout Kind: MIC Enterococccus faecalis (GC 4552) (µg/mL)
The answer is to be given in µg/mL; state only the numeric part.

{"Molecule": "CC(c1ccccc1)C1NC(=O)CNC(=O)C(CO)NC(=O)C(C(O)C2CNC(=N)N2C2OC(CO)C(O)C(O)C2O)NC(=O)C(C(O)C2CNC(=N)N2)NC(=O)C(Cc2ccc(OC3OC(CO)C(OC4OC5COC(CC67CC8CC(CC(C8)C6)C7)OC5C(O)C4O)C(O)C3O)cc2)NC1=O (stereo not shown) [Example 129]", "MIC Enterococccus faecalis (GC 4552) / µg/mL": 2}
{"Molecule": "COC1CCC2(C)C(CCC3C2CCC2(C)C(C(C)CCC4OCC5OC(OC6C(CO)OC(Oc7ccc(CC8NC(=O)C(C(C)c9ccccc9)NC(=O)CNC(=O)C(CO)NC(=O)C(C(O)C9CNC(=N)N9C9OC(CO)C(O)C(O)C9O)NC(=O)C(C(O)C9CNC(=N)N9)NC8=O)cc7)C(O)C6O)C(O)C(O)C5O4)CCC32)C1 (stereo not shown) [Example 130]", "MIC Enterococccus faecalis (GC 4552) / µg/mL": 32}
{"Molecule": "CC(c1ccccc1)C1NC(=O)CNC(=O)C(CO)NC(=O)C(C(O)C2CNC(=N)N2C2OC(CO)C(O)C(O)C2O)NC(=O)C(C(O)C2CNC(=N)N2)NC(=O)C(Cc2ccc(OC3OC(CO)C(OC4OC(COC(=O)CCC5CCCC5)C(O)C(O)C4O)C(O)C3O)cc2)NC1=O (stereo not shown) [Example 100c]", "MIC Enterococccus faecalis (GC 4552) / µg/mL": 4}
{"Molecule": "CC(c1ccccc1)C1NC(=O)CNC(=O)C(CO)NC(=O)C(C(O)C2CNC(=N)N2C2OC(CO)C(O)C(O)C2O)NC(=O)C(C(O)C2CNC(=N)N2)NC(=O)C(Cc2ccc(OC3OC(CO)C(OC4OC5COC(CCc6ccccc6)OC5C(O)C4O)C(O)C3O)cc2)NC1=O (stereo not shown) [Example 124]", "MIC Enterococccus faecalis (GC 4552) / µg/mL": 4}
{"Molecule": "CC(c1ccccc1)C1NC(=O)CNC(=O)C(CO)NC(=O)C(C(O)C2CNC(=N)N2C2OC(CO)C(O)C(O)C2O)NC(=O)C(C(O)C2CNC(=N)N2)NC(=O)C(Cc2ccc(OC3OC(CO)C(OC4OC5COC(C67CC8CC(CC(C8)C6)C7)OC5C(O)C4O)C(O)C3O)cc2)NC1=O (stereo not shown) [Example 127]", "MIC Enterococccus faecalis (GC 4552) / µg/mL": 4}

Proceed to the following item.
Query: Answer briefly: MIC Enterococccus faecalis (GC 4552) recorded on Enterococcus sp. for CC(c1ccccc1)C1NC(=O)CNC(=O)C(CO)NC(=O)C(C(O)C2CNC(=N)N2C2OC(CO)C(O)C(O)C2O)NC(=O)C(C(O)C2CNC(=N)N2)NC(=O)C(Cc2ccc(OC3OC(CO)C(OC4OC5COC(CC6CCN(C(=O)OCc7ccccc7)CC6)OC5C(O)C4O)C(O)C3O)cc2)NC1=O (stereo not shown) [Example 113]
Reply: 2
